Test: Acute toxicity (LD50)
Settings: mouse, in vivo; intravenous, mice
readout.type: LD50

The reported LD50 of the compound COC(=O)c1cc2c([nH]1)C(=O)C=C1N(C(=O)c3cc4cc(OC)c(OC)c(OC)c4[nH]3)CC3CC123 (stereo not shown) [DC 113] was 0.14 mg/kg

// provenance: patent US5101038A
